- Tested on: CD4+ T-cells and dendritic cells
- experiment: I-MUNE assay: CD4+ T-cell proliferation to 15-mer peptide sets presented by dendritic cells
- Assay type: cell-based, human
- reportedConditions: Table 3; SI>2.95
measuredQuantity: Response/Peptide
Write the number on its own, no unit after it.

# lookup: Response/Peptide of B. lentus subtilisin: Bacillus lentus subtilisin, industrial protease, Swissprot accession number P29600 (protein, UniProt P29600 1-269, looked up) Subtilisin Savinase: AQSVPWGISRVQAPAAHNRGLTGSGVKVAVLDTGISTHPDLNIRGGASFVPGEPSTQDGNGHGTHVAGTIAALNNSIGVLGVAPSAELYAVKVLGASGSGSVSSIAQGLEWAGNNGMHVANLSLGSPSPSATLEQAVNSATSRGVLVVAASGNSGAGSISYPARYANAMAVGATDQNNNRASFSQYGAGLDIVAPGVNVQSTYPGSTYASLNGTSMATPHVAGAAALVKQKNPSWSNVQIRNHLKNTATSLGSTNLYGSGLVNAEAATR 2.24
